Exercise: for every item that follows, state its recorded pKd.
Biological target: DLG4_2, P78352
Sequence (P78352 155-259): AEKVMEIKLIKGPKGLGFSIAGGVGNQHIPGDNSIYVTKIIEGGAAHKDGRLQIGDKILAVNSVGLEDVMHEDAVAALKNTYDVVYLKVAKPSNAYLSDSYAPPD
Test: holdup assay
Set-up: key: below the threshold = too weak to quantify, mostly under pKd 3.1 to 4
Conditions: plain residues with an end cap or a label only (N-terminal biotin on a linker: ado-ado)
Give bare numbers.

These recorded examples may help you get a feel for the data.
> print(dat)
                          binder  result.value
1  QLKSGRDSTV [TMEM178A, Q8NBL3]          4.61
2   GTMFLRETSL [GUCY1A2, P33402]           4.5
3   NISARRFTLC [FAM167B, Q9BTA0]          4.13

The following binders each have a reported value; give each one's pKd.
1. PEKVSNTTVV [IGSF5, Q9NSI5]
2. IKLETKKTKL [SLC15A2, Q16348]
3. GSQSQVETEA [FKBP4, Q02790]
4. TNSKQGETTV [FZD1, Q9UP38]

### Response
1. 4.49
2. 3.87
3. 3.59
4. 4.94

// batch mode: one pKd value per listed entry
1. VYEVPVETKF [SLC26A3, P40879]
2. IQISELETNV [SLC1A7, O00341]
3. IGHEDLETAV [DGKI, O75912]

### Response
1: 3.66; 2: 4.67; 3: 4.97
